System: NCI-H23 complex spheroids with HUVEC/MSC, viability
measurement-description: Anticancer human tumor NCI-H23 cell line growth inhibition [RAS];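 note: spheroids exposed to compound for 7 days; 100% = DMSO vehicle control viability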
test-conditions: second compound 0.3 µM; first compound 1 µM; hits give low values
Reported viability, T/C is given for each of the following compounds.
test-readout: viability, T/C

[
  {
    "compound": "NC1c2ccccc2OC12CCN(c1cnc3c(N4CCCc5ncccc54)n[nH]c3n1)CC2 (centres undefined) + CCn1c(-c2cccnc2C(C)OC)c2c3cc(ccc31)N1CCOC(CC(NC(=O)C(C(C)C)N(C)C(=O)C3(F)CCN(C(=O)C#CC(C)(C)N(C)C)CC3)C(=O)N3CCCC(N3)C(=O)OCC(C)(C)C2)C1",
    "result": "6.6%"
  },
  {
    "compound": "C[C@@H](NC(=O)c1ncnc(N)c1Cl)c1ncc(C(=O)Nc2cc(C(F)(F)F)c(Cl)cn2)s1 + CCn1c(-c2cc(N3CCN(C)CC3)cnc2C(C)OC)c2c3cc(ccc31)-c1csc(n1)CC(NC(=O)C1CC1C)C(=O)N1CCCC(N1)C(=O)OCC(C)(C)C2",
    "result": "22.7%"
  },
  {
    "compound": "Nc1ccn(C2OC(CO)C(O)C2(F)F)c(=O)n1 (centres undefined) + CCn1c(-c2cccnc2C(C)OC)c2c3cc(ccc31)N1CCOC(CC(NC(=O)C(C(C)C)N(C)C(=O)C3(F)CCN(C(=O)C#CC(C)(C)N(C)C)CC3)C(=O)N3CCCC(N3)C(=O)OCC(C)(C)C2)C1",
    "result": "1.54%"
  },
  {
    "compound": "C=CC(=O)Nc1cc(Nc2nccc(-c3cn(C)c4ccccc34)n2)c(OC)cc1N(C)CCN(C)C + CCn1c(-c2cc(N3CCN(C)CC3)cnc2C(C)OC)c2c3cc(ccc31)-c1csc(n1)CC(NC(=O)C1CC1C)C(=O)N1CCCC(N1)C(=O)OCC(C)(C)C2",
    "result": "11.8%"
  }
]

* * *

Reported viability, T/C is given for each of the following molecules.
Tested on: NCI-H23 complex spheroids with HUVEC/MSC, viability
measurement-description: Anticancer human tumor NCI-H23 cell line growth inhibition [RAS];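 note: spheroids exposed to compound for 7 days; 100% = DMSO vehicle control viability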
test-conditions: second compound 1 µM; first compound 1 µM; hits give low values

[
  {
    "molecule": "CC(C)NCC(C(=O)N1CCN(c2ncnc3c2C(C)CC3O)CC1)c1ccc(Cl)cc1 (stereo not drawn) + C=CC(=O)N1CCN(c2nc(OCC3CCCN3C)nc3c(F)c(-c4nc(N)cc(C)c4C(F)(F)F)c(Cl)cc23)C(C)C1",
    "viability, T/C": "26.1%"
  },
  {
    "molecule": "CC1(O)CCCC1n1c(=O)c(C(F)F)cc2cnc(NC3CCN(S(C)(=O)=O)CC3)nc21 (stereo not drawn) + C=CC(=O)N1CCN(c2nc(OCC3CCCN3C)nc3c(F)c(-c4nc(N)cc(C)c4C(F)(F)F)c(Cl)cc23)C(C)C1",
    "viability, T/C": "22%"
  },
  {
    "molecule": "CC(Nc1ccc2c(c1)OCCn1cc(N3C(=O)OCC3C(F)F)nc1-2)C(N)=O (stereo not drawn) + C#Cc1c(F)ccc2cc(O)cc(-c3ncc4c(N5CC6CCC(C5)N6)nc(OCC56CCCN5CC(F)C6)nc4c3F)c12",
    "viability, T/C": "54%"
  }
]

This collection of values is drawn from PubChem BioAssay AID2060885.
